tested on: Cryptococcus neoformans; settings: Concentration 32 ug.mL-1; ASSAY_TEST Inhibition of Fungal Growth; detection method Resazurin; Absorption (OD600-OD570); plate type 384well; NBS; CORNING #3640
Description: Antifungal activity against Cryptococcus neoformans H99 ATCC 208821 (CO-ADD:FG_002); MIC in YNB media using NBS plates, by Resazurin OD(600-570)
Measured potencies and affinities stand elsewhere.
Measured endpoint: Inhibition

• Cc1ccc(NC(=O)Cn2nc3c(N4CCCC4)nccn3c2=O)cc1Cl = -21.34%
• CCc1ccc(NC(=O)Cn2nc3c(=O)n(-c4ccc(Br)cc4)ccn3c2=O)cc1 = -8.7%
• COc1cccc(Oc2nccn3c(=O)n(CC(=O)Nc4cccc(Br)c4)nc23)c1 = -8.58%
• COc1ccc(Cn2nc3ccc(-c4ccc(Cl)cc4)nn3c2=O)cc1F = -15.51%
• CCc1ccccc1NC(=O)Cn1nc2cc(C)nc(Nc3ccc(F)c(C)c3)n2c1=O = -2.36%

====

test system: Klebsiella pneumoniae; details: Concentration 32 ug.mL-1;; ASSAY_TEST Inhibition of Bacterial Growth; detection method Absorption (OD600); MEDIA CAMHB; plate type 384well; NBS; CORNING #3640; time 18 hr
Description: Antibacterial activity against Klebsiella pneumoniae MDR ATCC 70063 (CO-ADD:GN_003); MIC in CAMBH media using NBS plates, by OD(600)
Measured potencies and affinities stand elsewhere.
Measured endpoint: Inhibition (%)

• COc1ccc(Cn2nc3ccc(-c4ccccc4)nn3c2=O)cc1F = 8.32
• Cc1ccc(Oc2nccn3c(=O)n(CC(=O)N4CCN(c5ccccc5F)CC4)nc23)cc1 = 13.64
• CCc1cccc(NC(=O)CSc2nnc3c(=O)n(-c4ccccc4)ccn23)c1 = 3.17
• CCc1nnc2ccc(S(=O)(=O)N(Cc3cccc(F)c3)c3ccc(OC)cc3)cn12 = -6.85
• COc1ccc(CNC(=O)CSc2nnc3c4cc(-c5ccc(C)cc5)nn4ccn23)cc1 = 9.18

====

test system: Candida albicans; details: Concentration 32 ug.mL-1; ASSAY_TEST Inhibition of Fungal Growth; detection method Absorption (OD530)
Description: Antifungal activity against Candida albicans ATCC 90028 (CO-ADD:FG_001); MIC in YNB media using NBS plates, by OD630
Results with a measured potency or affinity are listed apart.
Response key: Fulfilled means Inhibition >= 2%; Not fulfilled means Inhibition < 2%.

- Cc1ccc(NC(=O)Cn2nc3c(N4CC(C)CC(C)C4)nccn3c2=O)c(F)c1 (stereo not given): Fulfilled
- CCc1cccc(NC(=O)Cn2nc3ccc(SC(C)C)nn3c2=O)c1: Fulfilled
- COc1ccc(CN(c2ccc(F)c(F)c2)S(=O)(=O)c2ccc3nncn3c2)cc1: Not fulfilled
- Cc1ccc(NC(=O)Cn2nc3c(N4CCCC4)nccn3c2=O)cc1Cl: Not fulfilled
- O=c1c2nnc(SCc3ccccc3F)n2ccn1-c1ccc(F)cc1: Fulfilled
- O=C(Cn1nc2c(N3CCOCC3)nccn2c1=O)Nc1ccc(Br)cc1F: Not fulfilled
- COc1ccc(NC(=O)Cn2nc3cc(C)nc(Nc4ccc(F)c(C)c4)n3c2=O)cc1: Fulfilled
- CCc1ccc(N(Cc2ccc(F)cc2)S(=O)(=O)c2cccn3c(C)nnc23)cc1: Fulfilled
- COc1cccc(-n2ccn3c(SCc4ccccc4Cl)nnc3c2=O)c1: Fulfilled

====

Known Inhibition of a selection of compounds
test system: Candida albicans; details: Concentration 32 ug.mL-1; ASSAY_TEST Inhibition of Fungal Growth; detection method Absorption (OD530)
Entries with a potency or affinity are not part of this list.
Measured endpoint: Inhibition (%)

* CCCCOc1ccc(-c2cc3c4nnc(SCC(=O)Nc5ccc(Cl)cc5)n4ccn3n2)cc1 | 2.71
* COc1cccc(-c2noc(Cn3nc4ccc(-c5ccccc5)nn4c3=O)n2)c1OC | 2.21
* O=C(Cn1nc2c(Sc3ccccc3)nccn2c1=O)Nc1ccc2c(c1)OCO2 | 12.77
* O=C(Cn1nc2c3c4c(sc3ncn2c1=O)CCCC4)NCCc1ccc(Cl)cc1 | 7.92
* CC1CCCN(c2nccn3c(=O)n(CC(=O)Nc4ccc5c(c4)OCO5)nc23)C1 (stereo not given) | -0.45

This collection of values is drawn from ChEMBL document CHEMBL4513146.
